Tested on: UACC-257 melanoma
Experiment: NCI-60 one-dose screen, 48 h (100 = growth as untreated, 0 = no growth, -100 = all killed)
Conditions: 10 µM unless noted
Protocol: Cells are grown in 96 well plates and exposed to the test compound for 48 hours. Compounds are tested at a single concentration, which is 10^-5 M for most compounds. The reported endpoint is percent growth (GI% or GIPRCNT), where numbers from 0 - 100% represent growth inhibition, and numbers from -100% - 0 represent cell death. For example, a value of 40 represents 60% growth inhibition. A value of 0 means no net growth occurred over the course of the experiment. […]
The panel holds about 83,000 compounds, 20% with a hit somewhere; the sample as a whole holds those more often.
outcome_measure: growth (%)
Record the value in %, omitting the unit from your answer.

Cc1cccc(NC(=O)CCc2ccc(N3C(N)=NC(N)=NC3(C)C)cc2)c1 : 28.2
CC1=C2C(=C[C@@](C)(CO)[C@@H]2OC(=O)N(C)CCN(C)C(=O)OC(C)(C)C)C(=O)[C@](C)(O)C12CC2 : 100
[2H]c1nc(Nc2ncc(F)c(-c3cc(F)c4nc(C)n(C(C)C)c4c3)n2)c([2H])c([2H])c1CN1CCN(CC)CC1 : 72.3

Below: the item to evaluate.
Inquiry: Param item = NC(N)=N/N=C/c1ccc([N+](=O)[O-])cc1 ; retrieve measured growth.
Reply text: 102
